- Test system: amastigotes forms of the T. cruzi Y strain
- assay notes: In vitro antitrypanosomal activity against amastigotes of moderately drug-resistant T. cruzi Y strain (Giemsa counting in LLC-MK2 cells)
- Format: cell-based, Trypanosoma cruzi
- applied conditions: Trypanosoma cruzi, LLC-MK2; amastigotes, after 72 h; 95% confidence limits in parentheses
Assignment: determine reported IC50 for the given compounds.
One number for each entry, in µM.

| compound | measurement |
| --- | --- |
| O=C(Cn1ccnc1[N+](=O)[O-])NCc1ccccc1 [BZN, benznidazole, reference compound] | 3.56 |

Query compound follows.
GET /value?item= COC(=O)C=Cc1ccc2c(c1)C(C(=O)OC)C(c1ccc(O)cc1)O2 (mixture of isomers) &field=IC50 returns 3.26
